# test_description: basal RPMI8226 mitochondrial membrane potential changes, profiling panel, cell-based, JC-1 fluorescence, 24 h, 100 nL compound (AID 1169); further: test concentration not given here
# test_context: RPMI8226 myeloma, JC-1 mitochondrial potential fluorescence, higher = more signal
Output Yes for z-score not less than -0.007; output No otherwise.

>  <compound>
O=C1c2ccccc2[C@](Cc2ccccc2I)(C(=O)NCc2ccccc2)[C@H](c2ccc(CO)cc2)N1C1CCCCC1

>  <category_label>
Yes

$$$$
>  <compound>
O=C(CS)NCCCCCCNC(=O)[C@@H]1C[C@@H]2C(=O)N3CCC[C@H]3C(=O)N2[C@@H]1c1cccc(OCCO)c1

>  <category_label>
Yes

$$$$
>  <compound>
COc1ccc(C(O)C2C=CC3C(=O)N(c4ccccc4)C(=O)C3N2Nc2ccccc2)cc1OCc1ccccc1 (centres undefined)

>  <category_label>
No

$$$$
>  <compound>
COCC(=C=CC[C@H](O)c1ccc(OCCO)cc1)C[C@H](O)COCc1ccccc1

>  <category_label>
No

$$$$
>  <compound>
COc1ccc([Si](C)(C)[C@H]2[C@H](CCn3cc([C@H](O)c4ccccc4)nn3)O[C@@]3(C(=O)N(Cc4ccc(N5CCOC5=O)cc4)c4ccccc43)[C@@H]2C)cc1

>  <category_label>
Yes

$$$$
>  <compound>
C[N+](C)(C)CCCC[C@@H]1NC(=O)[C@@H]2C[C@H](C(=O)O)[C@H](c3ccc(O)cc3)N2C1=O

>  <category_label>
No

$$$$
>  <compound>
C=CCOC(=O)[C@@H]1[C@H]2C(=O)O[C@H](c3ccccc3)[C@H](c3ccccc3)N2[C@H](c2ccc(OCCOC(=O)[C@H]3C[C@H]4C(=O)N[C@@H](CCCCNC(C)=O)C(=O)N4[C@H]3c3cccc(OCCO)c3)cc2)[C@@]12C(=O)Nc1ccc(I)cc12

>  <category_label>
No

$$$$
>  <compound>
CO[C@H]1O[C@H](CO)[C@@H](OC(=O)c2ccc(Br)cc2)[C@@H]2OC(=O)[C@@H](Cc3ccc4ccccc4c3)C/C=C/C[C@H](Cc3ccc4ccccc4c3)C(=O)O[C@@H]12

>  <category_label>
No

$$$$
>  <compound>
COC(=O)[C@]1(CCS(=O)(=O)c2ccccc2)N=C(c2ccc(OCCCO)cc2)O[C@@H]1c1ccccc1CN=[N+]=[N-]

>  <category_label>
No

$$$$
>  <compound>
C=CCOC(=O)[C@@H]1[C@H]2C(=O)O[C@H](c3ccccc3)[C@H](c3ccccc3)N2[C@H](c2ccc(OCCOC(=O)[C@H]3C[C@H]4C(=O)N[C@@H](CCCC[N+](C)(C)C)C(=O)N4[C@H]3c3ccc(O)cc3)cc2)[C@@]12C(=O)Nc1ccc(I)cc12

>  <category_label>
No

$$$$

With those in mind, consider the next compound.
IN: I'd appreciate it if you could say whether `COCCOC(=O)N1C(=O)[C@@]2(c3cc(C#CC4=CCCCC4)ccc31)[C@H](c1ccccc1OCCO)N1[C@H](c3ccccc3)[C@H](c3ccccc3)OC(=O)[C@H]1[C@@H]2C(=O)N1CCc2cc(OC)c(OC)cc2C1` has z-score at least equal to -0.007.
OUT: No

====

# test_description: HepG2 cell viability effects, profiling panel, calcein-AM fluorescence, 48 h, basal (AID 1164); further: test concentration not given here
# test_context: higher = more signal
The threshold is inclusive: z-score of exactly 0.1 counts as t; values below receive f.

Take a look at these entries with their results.
>  <molecule>
O=C1c2ccccc2[C@](Cc2ccccc2I)(C(=O)NCc2ccccc2)[C@H](c2ccc(CO)cc2)N1C1CCCCC1

>  <category_label>
f

$$$$
>  <molecule>
C[n+]1ccc(CCCO)cc1

>  <category_label>
f

$$$$
>  <molecule>
CCCc1cccc(=O)o1

>  <category_label>
f

$$$$
>  <molecule>
Cc1ccc(S[C@]2(C(=O)NCc3ccccc3)CC(=O)N(C(C)C)[C@@H]2c2ccc(CO)cc2I)cc1

>  <category_label>
f

$$$$

IN: Is z-score at least 0.1? Consider `COCCCNC(=O)[C@@]1(Sc2ccc(C)cc2)CC(=O)N(Cc2cc(C(F)(F)F)cc(C(F)(F)F)c2)[C@@H]1c1ccc(CO)cc1`
OUT: t

IN: Can you check `C=C(C(=O)CC[C@H](OC(=O)c1cccnc1)c1cccc(OCCO)c1)C(C)C` next?
OUT: f

IN: Continue with `CC(C)C(=C=CC[C@@H](O)c1ccccc1OCCO)C[C@@H](O)COCc1ccccc1`
OUT: t

IN: Quick one: CC1CC/C=C\[C@H]2OC34C=CCN(c5ccc6ccccc6c5)C(=O)[C@H]3N(C(CO)C(C)C)C(=O)[C@@H]4C2C(=O)O1 (some centres undefined)
OUT: t

IN: Input `NCCCCCCNC(=O)[C@@H]1C[C@@H]2C(=O)N3CCC[C@H]3C(=O)N2[C@@H]1c1ccc(O)cc1`
OUT: t
